Data provenance: patent US8648066B2

target: mTOR/GbL/Raptor (mTORC1) (Homo sapiens); assay: mTOR/GbL/Raptor (mTORC1) ELISA assay; settings: phosphorylation of 4E-BP1; 0.2 nM mTORC1, 10 μM ATP; read-out: IC50 in this assay (mTORC1 ELISA)

[
  {
    "MOLECULE": "Cc1nc2cc(-c3ccc4c(c3)CN(c3nc(CN(C)C)nc(C)c3Cc3ccc(F)cc3)CCO4)ccc2[nH]1",
    "ASSAYED_SYSTEM": "mTOR/GbL/Raptor (mTORC1) (Homo sapiens)",
    "IC50": "≤ 10 nM"
  },
  {
    "MOLECULE": "Cc1nc(CNCCF)nc(N2CCOc3ccc(-c4cnc5sc(N)nc5c4)cc3C2)c1C(C)C",
    "ASSAYED_SYSTEM": "mTOR/GbL/Raptor (mTORC1) (Homo sapiens)",
    "IC50": "≤ 10 nM"
  },
  {
    "MOLECULE": "CC[C@H]1CCc2c(ncnc2N2CCOc3ccc(-c4cnc5nc(NC(=O)OC)[nH]c5c4)cc3C2)C1",
    "ASSAYED_SYSTEM": "mTOR/GbL/Raptor (mTORC1) (Homo sapiens)",
    "IC50": "10 to 50 nM"
  },
  {
    "MOLECULE": "CCC1CCc2ncnc(N3CCOc4ccc(-c5ccc6nc(C)[nH]c6c5)cc4C3)c2C1 (stereo not drawn)",
    "ASSAYED_SYSTEM": "mTOR/GbL/Raptor (mTORC1) (Homo sapiens)",
    "IC50": "10 to 50 nM"
  },
  {
    "MOLECULE": "Cc1cccc(Cc2c(C)ncnc2N2CCOc3ccc(-c4ccc5nc(C)[nH]c5c4)cc3C2)c1",
    "ASSAYED_SYSTEM": "mTOR/GbL/Raptor (mTORC1) (Homo sapiens)",
    "IC50": "10 to 50 nM"
  },
  {
    "MOLECULE": "CC1(C)CCc2ncnc(N3CCOc4ccc(-c5cnc(N)c(S(=O)(=O)NC[C@H]6CCCNC6)c5)cc4C3)c2C1",
    "ASSAYED_SYSTEM": "mTOR/GbL/Raptor (mTORC1) (Homo sapiens)",
    "IC50": "10 to 50 nM"
  },
  {
    "MOLECULE": "Cc1ncnc(N2CCOc3ccc(-c4cncs4)cc3C2)c1Cc1ccc(F)cc1",
    "ASSAYED_SYSTEM": "mTOR/GbL/Raptor (mTORC1) (Homo sapiens)",
    "IC50": "50 to 250 nM"
  },
  {
    "MOLECULE": "CC[C@H]1CCc2c(nc(C)nc2N2CCOc3ccc(-c4cnc(N)c(S(=O)(=O)N5CCC(C)(N)C5)c4)cc3C2)C1 (stereo partly drawn)",
    "ASSAYED_SYSTEM": "mTOR/GbL/Raptor (mTORC1) (Homo sapiens)",
    "IC50": "10 to 50 nM"
  },
  {
    "MOLECULE": "CC[C@H]1CCCc2c(ncnc2N2CCOc3ccc(-c4cnc5nc(C)[nH]c5c4)cc3C2)C1",
    "ASSAYED_SYSTEM": "mTOR/GbL/Raptor (mTORC1) (Homo sapiens)",
    "IC50": "≤ 10 nM"
  },
  {
    "MOLECULE": "COc1ccc(-c2ccc3c(c2)CN(c2nc(CN(C)C)nc(C)c2C(C)C)CCO3)cc1NS(C)(=O)=O",
    "ASSAYED_SYSTEM": "mTOR/GbL/Raptor (mTORC1) (Homo sapiens)",
    "IC50": "250 to 1000 nM"
  },
  {
    "MOLECULE": "Cc1nc2ncc(-c3ccc4c(c3)CN(c3ncnc(N5CCC5)c3C)CCO4)cc2[nH]1",
    "ASSAYED_SYSTEM": "mTOR/GbL/Raptor (mTORC1) (Homo sapiens)",
    "IC50": "250 to 1000 nM"
  },
  {
    "MOLECULE": "CC1(C)CCc2ncnc(N3CCOc4ccc(-c5cnc(N)c(S(=O)(=O)N6CCCC(O)C6)c5)cc4C3)c2C1 (stereo not drawn)",
    "ASSAYED_SYSTEM": "mTOR/GbL/Raptor (mTORC1) (Homo sapiens)",
    "IC50": "10 to 50 nM"
  },
  {
    "MOLECULE": "CN(C)Cc1nc2c(c(N3CCOc4ccc(-c5ccc(Cl)c(C(N)=O)c5)cc4C3)n1)CC(C)(C)CC2",
    "ASSAYED_SYSTEM": "mTOR/GbL/Raptor (mTORC1) (Homo sapiens)",
    "IC50": "≥ 2000 nM"
  },
  {
    "MOLECULE": "COc1ccc2c(N3CCOc4ccc(-c5ccc(N)nc5)cc4C3)nc(C)nc2c1",
    "ASSAYED_SYSTEM": "mTOR/GbL/Raptor (mTORC1) (Homo sapiens)",
    "IC50": "250 to 1000 nM"
  },
  {
    "MOLECULE": "Cc1ncnc(N2CCOc3ccc(-c4cnc(N)cn4)cc3C2)c1Cc1ccc(F)cc1",
    "ASSAYED_SYSTEM": "mTOR/GbL/Raptor (mTORC1) (Homo sapiens)",
    "IC50": "50 to 250 nM"
  }
]

----------
biological target: mTOR/GbL/Raptor (mTORC1) (Homo sapiens); test: mTOR/GbL/Raptor (mTORC1) ELISA assay; details: phosphorylation of 4E-BP1; 0.2 nM mTORC1, 10 μM ATP; read-out: IC50 in this assay (mTORC1 ELISA)
Known IC50 of a selection of molecules

[
  {
    "MOLECULE": "CC1(C)CCc2ncnc(N3CCOc4ccc(-c5cnc(OCc6ccccc6)c(NS(C)(=O)=O)c5)cc4C3)c2C1",
    "IC50": "≥ 2000 nM"
  },
  {
    "MOLECULE": "c1ccc(-c2nc(N3CCOc4ccc(-c5ccc6nc[nH]c6c5)cc4C3)c3ccccc3n2)cc1",
    "IC50": "≥ 2000 nM"
  },
  {
    "MOLECULE": "Cc1nc(C)c(CC2CC2)c(N2CCOc3ccc(-c4cnc5nc(C6CC6)[nH]c5c4)cc3C2)n1",
    "IC50": "10 to 50 nM"
  },
  {
    "MOLECULE": "CC1=Cc2ncnc(N3CCOc4ccc(-c5cnc6nc(C)[nH]c6c5)cc4C3)c2CC1(C)C",
    "IC50": "≤ 10 nM"
  },
  {
    "MOLECULE": "Cc1nc(CN(C)C)nc(N2CCOc3ccc(-c4cnc5sc(N)nc5c4)cc3C2)c1CC(C)C",
    "IC50": "10 to 50 nM"
  },
  {
    "MOLECULE": "Cc1nc2ncc(-c3ccc4c(c3)CN(c3ncnc(N5CCN(C)CC5)c3C)CCO4)cc2[nH]1",
    "IC50": "250 to 1000 nM"
  },
  {
    "MOLECULE": "COc1cccc(Cc2c(C)ncnc2N2CCOc3ccc(-c4ccc5nc(C)[nH]c5c4)cc3C2)c1",
    "IC50": "10 to 50 nM"
  },
  {
    "MOLECULE": "COc1ccc2c(N3CCOc4ccc(-c5cnc6sc(N)nc6c5)cc4C3)nc(C)nc2c1",
    "IC50": "250 to 1000 nM"
  },
  {
    "MOLECULE": "CC1(C)CCc2ncnc(N3CCOc4ccc(-c5cnc(Cl)c(S(=O)(=O)N6CC[C@H](N)C6)c5)cc4C3)c2C1",
    "IC50": "250 to 1000 nM"
  },
  {
    "MOLECULE": "Cc1nc2ccc(-c3ccc4c(c3)CN(c3ncnc(Nc5ccccc5)c3C)CCO4)cc2[nH]1",
    "IC50": "1000 to 2000 nM"
  },
  {
    "MOLECULE": "CCNS(=O)(=O)c1cc(-c2ccc3c(c2)CN(c2ncnc4c2CC(C)(C)CC4)CCO3)cnc1N",
    "IC50": "10 to 50 nM"
  },
  {
    "MOLECULE": "COCC1CCc2c(ncnc2N2CCOc3ccc(-c4cnc5nc(C)[nH]c5c4)cc3C2)C1 (stereo not drawn)",
    "IC50": "50 to 250 nM"
  },
  {
    "MOLECULE": "CC1(C)CCc2nc(CO)nc(N3CCOc4ccc(-c5cnc6sc(N)nc6c5)cc4C3)c2C1",
    "IC50": "≤ 10 nM"
  },
  {
    "MOLECULE": "CC1(C)CCc2ncnc(N3CCOc4ccc(-c5cnc(N)c(S(=O)(=O)NC[C@@H]6CCNC6)c5)cc4C3)c2C1",
    "IC50": "10 to 50 nM"
  },
  {
    "MOLECULE": "CC1(C)CCc2ncnc(N3CCOc4ccc(-c5ccc(Cl)c(NS(C)(=O)=O)c5)cc4C3)c2C1",
    "IC50": "250 to 1000 nM"
  }
]
